Hey, just so you know, these numbers are from patent US8569281B2.

Target entity: LRRK2 (Homo sapiens (Human))
Sequence (Q5S007 whole entry G2019S): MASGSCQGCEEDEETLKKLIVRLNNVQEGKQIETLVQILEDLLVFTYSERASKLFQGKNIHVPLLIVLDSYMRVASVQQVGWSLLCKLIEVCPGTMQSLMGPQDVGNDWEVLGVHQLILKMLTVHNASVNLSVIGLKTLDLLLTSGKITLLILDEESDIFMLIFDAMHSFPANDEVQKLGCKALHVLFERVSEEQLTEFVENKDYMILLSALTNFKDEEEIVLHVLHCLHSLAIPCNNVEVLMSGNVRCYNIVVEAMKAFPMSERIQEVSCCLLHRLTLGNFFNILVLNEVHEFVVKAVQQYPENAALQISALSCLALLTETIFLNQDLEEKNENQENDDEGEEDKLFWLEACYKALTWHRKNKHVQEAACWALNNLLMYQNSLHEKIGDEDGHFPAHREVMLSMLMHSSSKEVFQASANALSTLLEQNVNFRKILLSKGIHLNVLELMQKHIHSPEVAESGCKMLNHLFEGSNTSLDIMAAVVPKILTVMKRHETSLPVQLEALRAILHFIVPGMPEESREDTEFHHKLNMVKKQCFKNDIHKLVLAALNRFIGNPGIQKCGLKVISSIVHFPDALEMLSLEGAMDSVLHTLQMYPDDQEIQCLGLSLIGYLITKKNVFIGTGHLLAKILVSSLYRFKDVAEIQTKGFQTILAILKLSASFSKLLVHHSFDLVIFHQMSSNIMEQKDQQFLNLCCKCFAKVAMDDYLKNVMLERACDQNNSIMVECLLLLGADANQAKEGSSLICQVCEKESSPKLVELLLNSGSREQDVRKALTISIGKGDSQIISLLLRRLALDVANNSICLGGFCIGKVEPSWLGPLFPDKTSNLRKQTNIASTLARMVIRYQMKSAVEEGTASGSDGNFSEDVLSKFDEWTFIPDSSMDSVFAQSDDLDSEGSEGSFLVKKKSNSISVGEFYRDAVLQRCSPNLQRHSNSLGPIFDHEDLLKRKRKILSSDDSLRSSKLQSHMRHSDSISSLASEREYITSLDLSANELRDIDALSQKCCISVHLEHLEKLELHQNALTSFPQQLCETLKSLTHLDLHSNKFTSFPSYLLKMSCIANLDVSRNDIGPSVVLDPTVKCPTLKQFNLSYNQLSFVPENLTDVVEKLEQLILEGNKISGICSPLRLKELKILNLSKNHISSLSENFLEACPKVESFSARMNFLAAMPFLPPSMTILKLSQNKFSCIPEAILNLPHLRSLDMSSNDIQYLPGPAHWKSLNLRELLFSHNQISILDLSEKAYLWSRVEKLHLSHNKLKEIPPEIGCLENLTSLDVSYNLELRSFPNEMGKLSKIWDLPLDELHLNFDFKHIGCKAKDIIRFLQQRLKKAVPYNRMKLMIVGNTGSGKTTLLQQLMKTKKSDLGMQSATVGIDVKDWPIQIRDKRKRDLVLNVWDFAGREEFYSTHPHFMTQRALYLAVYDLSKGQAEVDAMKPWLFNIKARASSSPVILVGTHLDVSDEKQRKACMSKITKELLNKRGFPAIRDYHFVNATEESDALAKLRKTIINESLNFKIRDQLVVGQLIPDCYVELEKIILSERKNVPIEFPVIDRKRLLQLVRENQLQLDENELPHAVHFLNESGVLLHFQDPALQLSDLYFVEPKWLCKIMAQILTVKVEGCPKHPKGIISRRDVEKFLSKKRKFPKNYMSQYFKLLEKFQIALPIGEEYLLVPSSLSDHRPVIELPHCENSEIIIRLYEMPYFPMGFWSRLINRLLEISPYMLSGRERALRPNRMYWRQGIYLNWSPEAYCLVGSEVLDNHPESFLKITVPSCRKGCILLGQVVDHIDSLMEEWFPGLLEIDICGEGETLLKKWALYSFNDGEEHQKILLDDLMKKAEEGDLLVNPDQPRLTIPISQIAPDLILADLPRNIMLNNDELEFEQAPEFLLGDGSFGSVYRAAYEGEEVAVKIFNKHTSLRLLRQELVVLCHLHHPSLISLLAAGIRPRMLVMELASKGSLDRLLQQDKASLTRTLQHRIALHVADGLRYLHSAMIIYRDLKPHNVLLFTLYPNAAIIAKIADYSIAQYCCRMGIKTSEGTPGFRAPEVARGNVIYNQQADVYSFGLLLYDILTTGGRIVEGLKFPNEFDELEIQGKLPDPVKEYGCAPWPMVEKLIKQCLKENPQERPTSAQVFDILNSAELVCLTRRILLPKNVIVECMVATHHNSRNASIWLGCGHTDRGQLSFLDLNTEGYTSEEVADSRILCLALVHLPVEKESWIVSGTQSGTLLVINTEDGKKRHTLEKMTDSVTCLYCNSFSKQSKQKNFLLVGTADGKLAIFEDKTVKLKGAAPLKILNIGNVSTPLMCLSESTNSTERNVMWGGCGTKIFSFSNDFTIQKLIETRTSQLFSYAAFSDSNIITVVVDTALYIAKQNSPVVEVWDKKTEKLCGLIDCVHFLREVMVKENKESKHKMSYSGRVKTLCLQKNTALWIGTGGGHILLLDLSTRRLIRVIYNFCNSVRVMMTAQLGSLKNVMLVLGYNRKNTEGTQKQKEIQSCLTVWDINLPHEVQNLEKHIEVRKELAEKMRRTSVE
Assay procedure: In Vitro LRRK2 Assay (LabChip 3000, fluorescently-labeled peptide substrate)
Format: biochemical
Stated conditions: ATP 130 μM, substrate 1 μM, 2 hours, ambient temperature; LRRK2 variant not given; read-out: Ki (μM), affinity values for LRRK2
Attribute measured: Ki (µM)

molecule=CC(C)Oc1nccc2[nH]nc(-c3cc(C(=O)N4CCCCC4)n(C(C)C)c3)c12 attribute_measured=Ki measurement_units=µM value_observed=0.019
molecule=COc1nccc2[nH]nc(-c3cc(C(=O)NC4COC4)n(C(C)C)c3)c12 attribute_measured=Ki measurement_units=µM value_observed=0.014
molecule=c1cc2[nH]nc(-c3cnn([C@H]4CCOC4)c3)c2c(OC2CCOCC2)n1 attribute_measured=Ki measurement_units=µM value_observed=0.003
molecule=COc1nccc2[nH]nc(-c3ccnc(-c4cnn(C)c4)c3)c12 attribute_measured=Ki measurement_units=µM value_observed=0.042
molecule=COc1nccc2[nH]nc(-c3cnn(C4COC4)c3)c12 attribute_measured=Ki measurement_units=µM value_observed=0.031

a = c1cc2n[nH]c(C3CC3)c2c(OC2CCOCC2)n1
b = c1cc2[nH]nc(-c3cnn(CC4CCC4)c3)c2c(OC2CCCCC2)n1
Param pair: a , b . Output: the one whose Ki is numerically greater. Choose, then provide that item's label.
b
(b: 0.055 µM, a: 0.035 µM)

A = CNC(=O)c1cccc(-c2n[nH]c3ccnc(OC4CCOCC4)c23)c1
B = c1cc(-c2n[nH]c3ccnc(OC4CCOCC4)c23)cc(NC2COC2)n1
I'm curious, which of these has a smaller Ki number: A or B ? # reply format: chosen label
A
(A: 0.025 µM, B: 0.136 µM)

A = c1cc2[nH]nc(-c3cnn(C4CCOC4)c3)c2c(OC2CCOCC2)n1 (stereo not shown)
B = c1cc(-c2cc(-c3n[nH]c4ccnc(OC5CCOCC5)c34)ccn2)ccn1
Consider A and B . Which of these has its Ki at a higher number? I would appreciate it if you answered with the label of your choice.
B
(B: 0.026 µM, A: 0.005 µM)
